B1: Azoarcus group I ribozyme (parent)
chain: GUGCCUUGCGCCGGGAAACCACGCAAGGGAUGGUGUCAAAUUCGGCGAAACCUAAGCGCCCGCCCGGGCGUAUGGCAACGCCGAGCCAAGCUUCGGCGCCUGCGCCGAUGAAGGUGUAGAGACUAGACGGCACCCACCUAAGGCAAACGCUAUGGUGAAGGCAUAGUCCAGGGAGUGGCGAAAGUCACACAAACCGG

Variants of: B1
Assay: reverse-splicing fitness (ratio to wild type); higher = more active; in vitro selection; Mg2+ level not given
Property measured: reverse-splicing fitness
Note: the reply should be a number with no unit written.

Entry C82A A120G C150A C169G ; reverse-splicing fitness = 0.0102

reverse-splicing fitness reported for this variant C82A A120U C150A C169G U176A : 0.00593

reverse-splicing fitness for C82G A111U A145C C150U C169U U176C is 0.0098

The recorded reverse-splicing fitness for C82U A111C A120G C150G C169G U176A is 0.00584

Value of reverse-splicing fitness reported for the variant C82G A111U A145U C150U C169U U176G is 0.00609
